# Test system: LNCaP
# protocolNotes: Cell growth inhibition assay, prostate cancer cell line LNCaP (medium with 10 ng/mL IL-6)
# Format: cell-based
# testConditions: Homo sapiens, medium supplemented with 10 ng/mL of IL-6, 10,000 cells/well

smilesCode	testedTarget	resultOperator	IC50 / µM
CS(=O)(=O)Nc1ccc2sc(C(=O)Nc3cc(Br)cc(C4(c5ccc(F)cc5F)CC4)c3)cc2c1	LNCaP	=	0.3
CS(=O)(=O)Nc1cc2cc(C(=O)Nc3cc(Cl)cc(Oc4cncs4)c3)sc2cc1Cl	LNCaP	=	0.37
CNS(=O)(=O)Nc1ccc2cc(C(=O)Nc3cccc(C(C)(C)c4ccc(F)cc4)c3)[nH]c2c1	LNCaP	=	4.7
C#Cc1cccc(S(=O)(=O)c2cccc(NC(=O)c3cc4ccc(NS(C)(=O)=O)cc4[nH]3)c2)c1	LNCaP	=	9
CS(=O)(=O)Nc1ccc2cc(C(=O)Nc3cc(-c4ccc(C(F)(F)F)nc4)cc(-c4ccc(F)cc4F)c3)[nH]c2c1	LNCaP	=	8
CC(C)(c1cccc(CN2CCNCC2)c1)c1cc(Br)cc(NC(=O)c2cc3ccc(NS(C)(=O)=O)cc3[nH]2)c1	LNCaP	>	10
CS(=O)(=O)Nc1ccc2cc(C(=O)Nc3cccc(-c4cc(C(N)=O)ccc4C(F)(F)F)c3)[nH]c2c1	LNCaP	>	10
CS(=O)(=O)Nc1ccc2sc(C(=O)Nc3cc(OC(F)F)cc(C4(c5ccc(F)cc5)CC4)c3)cc2c1	LNCaP	=	0.35
CC(C)(c1cc[nH]c1)c1cc(Cl)cc(NC(=O)c2cc3cc(NS(C)(=O)=O)ccc3s2)c1	LNCaP	=	2.3
CS(=O)(=O)Nc1ccc2sc(C(=O)Nc3cc(Br)cc(-c4ccc(F)cc4F)c3)cc2c1	LNCaP	=	0.072
CS(=O)(=O)Nc1ccc2sc(C(=O)Nc3cc(Cl)cc(Oc4cc(Cl)cc(OC(F)(F)F)c4)c3)cc2c1	LNCaP	=	0.039
CN(C)c1cc(NC(=O)c2cc3ccc(NS(C)(=O)=O)cc3[nH]2)cc(-c2ccc(F)cc2F)c1	LNCaP	=	3.5
COc1ccc(-c2cc(NC(=O)c3cc4ccc(NS(C)(=O)=O)cc4[nH]3)cc(-c3ccc(F)cc3F)c2)cn1	LNCaP	=	3.8
Cc1csc(C(C)(C)c2cc(Cl)cc(NC(=O)c3cc4cc(NS(C)(=O)=O)c(Cl)cc4s3)c2)c1	LNCaP	=	0.006
COC(=O)c1cc(-c2cccc(NC(=O)c3cc4ccc(NS(C)(=O)=O)cc4[nH]3)c2)c(C(F)(F)F)cc1OC	LNCaP	>	10

----------
# testedTarget: STAT3 (Homo sapiens, UniProt P40763)
# Construct: plasmid pSTAT3-TA-luc), which contains a stably operating STAT3 promoter; endogenous in cells
# Sequence (P40763 whole entry): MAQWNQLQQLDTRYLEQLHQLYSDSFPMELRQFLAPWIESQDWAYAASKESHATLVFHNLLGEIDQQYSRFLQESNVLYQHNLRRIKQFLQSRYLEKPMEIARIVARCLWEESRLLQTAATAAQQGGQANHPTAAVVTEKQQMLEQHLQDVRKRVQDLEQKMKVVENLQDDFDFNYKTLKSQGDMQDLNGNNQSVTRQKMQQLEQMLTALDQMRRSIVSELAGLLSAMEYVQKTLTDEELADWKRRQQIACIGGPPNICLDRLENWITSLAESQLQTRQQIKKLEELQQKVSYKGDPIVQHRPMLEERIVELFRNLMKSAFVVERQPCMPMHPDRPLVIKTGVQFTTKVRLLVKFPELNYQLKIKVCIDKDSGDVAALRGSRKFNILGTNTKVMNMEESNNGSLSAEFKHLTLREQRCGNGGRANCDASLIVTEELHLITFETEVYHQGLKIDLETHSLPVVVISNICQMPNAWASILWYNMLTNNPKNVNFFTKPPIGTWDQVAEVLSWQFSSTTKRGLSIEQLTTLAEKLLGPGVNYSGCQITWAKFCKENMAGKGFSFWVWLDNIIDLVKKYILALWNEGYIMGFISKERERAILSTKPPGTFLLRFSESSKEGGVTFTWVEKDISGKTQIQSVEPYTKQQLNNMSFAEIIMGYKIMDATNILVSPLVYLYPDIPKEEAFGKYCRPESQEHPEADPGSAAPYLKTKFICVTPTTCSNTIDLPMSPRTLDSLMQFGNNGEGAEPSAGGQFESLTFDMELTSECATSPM
# protocolNotes: STAT3 reporter gene assay (luciferase), LNCaP stable cell line (pSTAT3-TA-luc), IL-6 stimulation
# Format: cell-based
Catalogue of IC50 values
propertyLabel: IC50 (µM)

compound	result
CC(C)Oc1cc(CN2CCCC2)cc(C(C)(C)c2cc(Cl)cc(NC(=O)c3cc4cc(NS(C)(=O)=O)ccc4s3)c2)c1 [Example 125]	0.89
CC(C)Oc1cc(OC(F)(F)F)cc(C(C)(C)c2cc(Cl)cc(NC(=O)c3cc4c(s3)CCN(S(C)(=O)=O)C4)c2)c1 [Example 97]	2.1
CC(C)(c1ccc(F)cc1)c1cc(NC(=O)c2cc3ccc(NS(C)(=O)=O)cc3[nH]2)cc(OC(F)F)c1 [Example 17]	0.14
CS(=O)(=O)Nc1ccc2cc(C(=O)Nc3cc(C(=O)N4CCOCC4)cc(-c4ccc(F)cc4F)c3)[nH]c2c1 [Example 321]	8.2

----------
# testedTarget: STAT3 (Homo sapiens)
# Construct: plasmid pSTAT3-TA-luc), which contains a stably operating STAT3 promoter; endogenous in cells
# protocolNotes: STAT3 reporter gene assay (luciferase), LNCaP stable cell line (pSTAT3-TA-luc), IL-6 stimulation
# Assay type: cell-based

compound	testedTarget	resultOperator	IC50 / µM
Cc1c(C(=O)Nc2cccc(-c3ccccc3C(F)(F)F)c2)[nH]c2ccc([N+](=O)[O-])cc12 [Example 228]	STAT3 (Homo sapiens)	>	10
CS(=O)(=O)Nc1cc2cc(C(=O)Nc3cc(Cl)nc(Oc4ccc(C(F)(F)F)nc4)c3)sc2cc1Cl [Example 494]	STAT3 (Homo sapiens)	=	0.018
CS(=O)(=O)Nc1ccc2sc(C(=O)Nc3cccc(C4(c5ccc(F)cc5)CC4)c3)cc2c1 [Example 424]	STAT3 (Homo sapiens)	=	0.15
CC(C)(c1cc(Br)cc(NC(=O)c2cc3cc(NS(C)(=O)=O)ccc3s2)c1)c1cc(OCC(N)=O)ccc1F [Example 44]	STAT3 (Homo sapiens)	=	1.4
COc1cc2cc(C(=O)Nc3cc(Br)cc(C(C)(C)c4ccc(F)cc4)c3)[nH]c2cc1NS(C)(=O)=O [Example 19]	STAT3 (Homo sapiens)	=	0.12
CS(=O)(=O)Nc1ccc2sc(C(=O)Nc3cccc(-c4ccc(F)cc4F)c3)cc2c1 [Example 237]	STAT3 (Homo sapiens)	=	0.11
CS(=O)(=O)Nc1ccc2cc(C(=O)Nc3cccc(-c4ccc(F)cc4F)c3)sc2c1 [Example 242]	STAT3 (Homo sapiens)	=	0.96

----------
# System: HEL92.1.7
# protocolNotes: Cell growth inhibition assay, blood cancer cell line HEL92.1.7
# Format: cell-based
# testConditions: Homo sapiens, HEL 92.1.7, HEL92.1.7 blood cancer cell line
// NB: equality with 0.5 µM counts as -1; only IC50 strictly below is 1

smilesCode	answerLabel
CC(C)Oc1cc(OC(F)(F)F)cc(C(C)(C)c2cc(Cl)cc(NC(=O)c3cc4cc(NS(=O)(=O)N5CCOCC5)ccc4s3)c2)c1	1
CS(=O)(=O)Nc1ccc2sc(C(=O)Nc3cc(Cl)cc(Nc4ccc(F)cc4F)c3)cc2c1	1
CC(=O)N1CCC(S(=O)(=O)Nc2ccc3sc(C(=O)Nc4cc(Cl)cc(C(C)(C)c5cc(OC(C)C)cc(OC(F)(F)F)c5)c4)cc3c2)CC1	1
COc1ccc(OC)c(C(C)(C)c2cc(Cl)cc(NC(=O)c3cc4cc(NS(C)(=O)=O)ccc4s3)c2)c1	-1
CC(C)(C)OC(=O)N1CCN(Cc2cccc(C(C)(C)c3cc(Br)cc(NC(=O)c4cc5cc(NS(C)(=O)=O)ccc5s4)c3)c2)CC1	1
Cn1ccc(C(C)(C)c2cc(Cl)cc(NC(=O)c3cc4cc(NS(C)(=O)=O)ccc4s3)c2)c1	1
CC(C)Oc1cc(CN2CCN(C(=O)C(C)(C)C)CC2)cc(C(C)(C)c2cc(Cl)cc(NC(=O)c3cc4cc(NS(C)(=O)=O)ccc4s3)c2)c1	1
CN(C)CCOc1cc(OC(F)(F)F)cc(C(C)(C)c2cc(Cl)cc(NC(=O)c3cc4cc(NS(C)(=O)=O)ccc4s3)c2)c1	1
CC(C)Oc1cc(OC(F)(F)F)cc(C(C)(C)c2cc(Cl)cc(NC(=O)c3cc4cc(N(CCN(C)C)S(C)(=O)=O)c(F)cc4s3)c2)c1	-1
CC(C)Oc1cc(OC(F)(F)F)cc(C2(c3cc(Cl)cc(NC(=O)c4cc5cc(NS(C)(=O)=O)ccc5s4)c3)CC2)c1	1
CC(C)Oc1cc(OC(F)(F)F)cc(C(C)(C)c2cc(Cl)cc(N(C)C(=O)c3cc4cc(N(C)S(C)(=O)=O)c(F)cc4s3)c2)c1	-1
CC(C)(c1cc(Cl)cc(NC(=O)c2cc3cc(NS(C)(=O)=O)ccc3s2)c1)c1ccc(F)c(F)c1	1

----------
# testedTarget: STAT3 (Homo sapiens, UniProt P40763)
# Construct: plasmid pSTAT3-TA-luc), which contains a stably operating STAT3 promoter; endogenous in cells
# protocolNotes: STAT3 reporter gene assay (luciferase), LNCaP stable cell line (pSTAT3-TA-luc), IL-6 stimulation
# Format: cell-based
propertyLabel: IC50 (µM)

molecule	resultOperator	result
CC(C)Oc1cc(OC(F)(F)F)cc(C(C)(C)c2cc(Cl)cc(NC(=O)c3cc4cc(NS(=O)(=O)C5CCOC5)ccc4s3)c2)c1 (stereo not shown)	=	0.051
CS(=O)(=O)Nc1cc2cc(C(=O)Nc3cc(Cl)nc(Oc4ccc(Cl)nc4)c3)sc2cc1Cl	=	0.008
CN(c1ccc2cc(C(=O)Nc3cc(Br)cc(-c4ccc(F)cc4F)c3)[nH]c2c1)S(C)(=O)=O	=	0.39
CS(=O)(=O)Nc1ccc2sc(C(=O)Nc3cccc(C4(c5ccccc5)CC4)c3)cc2c1	=	0.2
CC(C)(c1cccc(NC(=O)c2cc3ccc(N(CC(N)=O)S(C)(=O)=O)cc3[nH]2)c1)c1cc(OCC(N)=O)cc(OC(F)(F)F)c1	=	6.3
COc1cc(NC(=O)c2cc3ccc(N(C)S(C)(=O)=O)cc3n2C)cc(-c2ccc(F)cc2F)c1	>	10
CC(C)(c1cc(Br)cc(NC(=O)c2cc3ccc(NS(C)(=O)=O)cc3[nH]2)c1)c1ccc(F)cc1F	=	0.12
